# assay_target: Cdk5/p25 (Homo sapiens)
# Sequence (Q00535 whole entry, species assumed): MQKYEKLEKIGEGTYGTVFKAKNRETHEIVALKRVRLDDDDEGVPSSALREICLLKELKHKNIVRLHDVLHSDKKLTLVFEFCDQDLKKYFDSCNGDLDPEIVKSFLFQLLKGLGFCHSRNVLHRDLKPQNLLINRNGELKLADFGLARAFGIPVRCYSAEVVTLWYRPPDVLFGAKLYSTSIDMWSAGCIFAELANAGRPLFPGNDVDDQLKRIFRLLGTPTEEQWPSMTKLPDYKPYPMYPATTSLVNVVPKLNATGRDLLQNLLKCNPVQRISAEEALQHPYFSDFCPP
# Sequence (Q15078 99-307 partner limits assumed, species assumed): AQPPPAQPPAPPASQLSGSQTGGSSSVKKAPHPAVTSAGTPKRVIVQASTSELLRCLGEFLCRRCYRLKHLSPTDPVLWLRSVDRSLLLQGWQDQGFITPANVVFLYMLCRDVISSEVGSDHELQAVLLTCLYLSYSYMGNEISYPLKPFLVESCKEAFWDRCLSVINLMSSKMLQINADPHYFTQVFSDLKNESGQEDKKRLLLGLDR
# measurement_protocol: in vitro inhibitory potency of CKI-7 towards Cdk5/p25
recorded_endpoint: IC50 (µM)

[[record]]
compound = "NCCNS(=O)(=O)c1ccc(Cl)c2ccncc12 [CKI-7]"
assay_target = "Cdk5/p25 (Homo sapiens)"
units_of_measure = "µM"
reported_measurement = 200


---

# Test system: Thr75 of DARPP-32 (Cdk5 site)
# measurement_protocol: DARPP-32 phospho-Thr75 immunoblot in neostriatal slices
# Type: cell-based, mouse
# measurement_context: before DHPG 100 μM 2 min; L-AP3 100 μM 20 min; U73122 10 μM 30 min; ZM241385 100 μM; BAPTA/AM 20 μM; cyclosporin A 5 μM 1 h
recorded_endpoint: effect of pretreatment on the DHPG effect on Thr75 phosphorylation

[[record]]
cpd_smiles = "CC(=O)OCOC(=O)CN(CC(=O)OCOC(C)=O)c1ccccc1OCCOc1ccccc1N(CC(=O)OCOC(C)=O)CC(=O)OCOC(C)=O"
assay_target = "Thr75 of DARPP-32 (Cdk5 site)"
reported_measurement = "abolished"

[[record]]
cpd_smiles = "COc1ccc2c(c1)CC[C@@H]1[C@@H]2CC[C@]2(C)[C@@H](NCCCCCCN3C(=O)C=CC3=O)CC[C@@H]12"
assay_target = "Thr75 of DARPP-32 (Cdk5 site)"
reported_measurement = "abolished"


---

# Tested on: Ser137 of DARPP-32 (CK1 site)
# measurement_protocol: DARPP-32 phospho-Ser137 immunoblot in neostriatal slices
# Type: cell-based, mouse
# measurement_context: before DHPG 100 μM 2 min; L-AP3 100 μM 20 min; U73122 10 μM 30 min; ZM241385 100 μM; BAPTA/AM 20 μM; cyclosporin A 5 μM 1 h
recorded_endpoint: effect of pretreatment on the DHPG effect on Ser137 phosphorylation

[[record]]
cpd_smiles = "CC(=O)OCOC(=O)CN(CC(=O)OCOC(C)=O)c1ccccc1OCCOc1ccccc1N(CC(=O)OCOC(C)=O)CC(=O)OCOC(C)=O"
reported_measurement = "abolished"

[[record]]
cpd_smiles = "COc1ccc2c(c1)CC[C@@H]1[C@@H]2CC[C@]2(C)[C@@H](NCCCCCCN3C(=O)C=CC3=O)CC[C@@H]12"
reported_measurement = "abolished"

